# Tested on: Mycobacterium tuberculosis
# assay-comment: Antimycobacterial activity against Mycobacterium tuberculosis H37Rv assessed as growth inhibition after 6 days by resazurin MIC assay
# Type: functional, organism-based
Criterion: growth inhibition (GI) meeting or surpassing 70%. Met: Yes. Not met: No.

COc1cccc(-c2cc(-c3cc4ccccc4oc3=O)n(C(=O)c3ccncc3)n2)c1
No

I'd appreciate it if you could say whether O=C(c1ccncc1)n1nc(-c2ccccc2)cc1-c1cc2ccccc2oc1=O has growth inhibition (GI) at least equal to 70%.
Yes

I'd appreciate it if you could say whether CN(C)c1ccc(-c2cc(-c3cc4ccccc4oc3=O)n(C(=O)c3ccncc3)n2)cc1 has growth inhibition (GI) at least equal to 70%.
Yes

I'd appreciate it if you could say whether O=C(c1ccncc1)n1nc(-c2ccc(F)cc2)cc1-c1cc2ccccc2oc1=O has growth inhibition (GI) at least equal to 70%.
Yes

I'd appreciate it if you could say whether O=C(c1ccncc1)n1nc(-c2ccccc2[N+](=O)[O-])cc1-c1cc2ccccc2oc1=O has growth inhibition (GI) at least equal to 70%.
No
